Each recorded value in this set is attributed to ChEMBL document CHEMBL3351860.

- method: Metabolic stability in rat liver microsomes after 30 mins
- Type: ADME
- applied-conditions: read-out: Stability
readout: remaining at 0.5 h (%)
Output spec: scalar in %, unitless text.

Req: Recall and state the measured remaining at 0.5 h for O=C(NCCN1CCC(O)(Cc2ccc(F)cc2)CC1)Nc1ccnc2ccsc12 .
Resp: 100

---

- method: Permeability of the compound by PAMPA assay
- Assay type: ADME
- applied-conditions: read-out: permeability
readout: Papp

Req: Recall and state the measured Papp for O=C(NCCN1CCC(O)(Cc2ccc(F)cc2)CC1)Nc1ccnc2ccsc12 .
Resp: 0.027 ×10⁻⁶ cm/s

---

Provide the recorded IC50 for the entries that follow.
- target-system: Urotensin-2 receptor (Homo sapiens)
- Sequence (Q9UKP6 whole entry): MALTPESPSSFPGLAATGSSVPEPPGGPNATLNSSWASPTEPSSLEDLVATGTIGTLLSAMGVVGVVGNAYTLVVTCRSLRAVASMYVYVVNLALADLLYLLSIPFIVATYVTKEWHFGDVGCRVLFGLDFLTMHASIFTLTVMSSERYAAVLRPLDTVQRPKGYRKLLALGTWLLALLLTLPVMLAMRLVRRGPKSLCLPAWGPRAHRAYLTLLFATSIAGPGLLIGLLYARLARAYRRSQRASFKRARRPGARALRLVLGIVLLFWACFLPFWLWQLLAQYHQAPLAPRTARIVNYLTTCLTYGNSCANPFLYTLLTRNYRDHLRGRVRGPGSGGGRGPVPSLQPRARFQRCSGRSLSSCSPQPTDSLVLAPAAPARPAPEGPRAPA
- method: Displacement of europium-labeled urotensin-II from human urotensin-2 receptor expressed in HEK293 cells by TRF assay
Output spec: scalar in nM, unitless text.

Req: Specify the recorded IC50 for O=C(NCCN1CCC(O)(Cc2ccccc2)CC1)Nc1ccnc2ccsc12 , system: Urotensin-2 receptor (Homo sapiens).
Resp: 36

Req: Specify the recorded IC50 for Cn1ccc2c(NC(=O)NCCN3CCC(O)(Cc4ccccc4)CC3)ccnc21 , system: Urotensin-2 receptor (Homo sapiens).
Resp: 160

Req: Specify the recorded IC50 for Cc1ccccc1CC1(O)CCN(CCNC(=O)Nc2ccnc3ccsc23)CC1 , system: Urotensin-2 receptor (Homo sapiens).
Resp: 20

Req: Specify the recorded IC50 for Cn1ccc2nccc(NC(=O)NCCN3CCC(O)(Cc4ccccc4)CC3)c21 , system: Urotensin-2 receptor (Homo sapiens).
Resp: 600

Req: Specify the recorded IC50 for O=C(NCCN1CCC(O)(Cc2ccccc2)CC1)Nc1ccnc2sccc12 , system: Urotensin-2 receptor (Homo sapiens).
Resp: 930

Req: Specify the recorded IC50 for O=C(NCCN1CCC(O)(Cc2ccccc2)CC1)Nc1ccnc2c(Br)csc12 , system: Urotensin-2 receptor (Homo sapiens).
Resp: 3220

Req: Specify the recorded IC50 for CCc1cc(NC(=O)NCCN2CCC(O)(Cc3ccccc3)CC2)c2sccc2n1 , system: Urotensin-2 receptor (Homo sapiens).
Resp: 60

Req: Specify the recorded IC50 for Cc1csc2c(NC(=O)NCCN3CCC(O)(Cc4ccccc4)CC3)ccnc12 , system: Urotensin-2 receptor (Homo sapiens).
Resp: 1230

Req: Specify the recorded IC50 for O=C(NCCN1CCC(O)(Cc2ccc(F)cc2)CC1)Nc1ccnc2ccsc12 , system: Urotensin-2 receptor (Homo sapiens).
Resp: 13

Req: Specify the recorded IC50 for Cc1ccc(CC2(O)CCN(CCNC(=O)Nc3ccnc4ccsc34)CC2)cc1 , system: Urotensin-2 receptor (Homo sapiens).
Resp: 190

Req: Specify the recorded IC50 for O=C(NCCN1CCC(O)(Cc2ccccc2Br)CC1)Nc1ccnc2ccsc12 , system: Urotensin-2 receptor (Homo sapiens).
Resp: 20

Req: Specify the recorded IC50 for Cc1cc(NC(=O)NCCN2CCC(O)(Cc3ccccc3)CC2)c2cnn(C)c2n1 , system: Urotensin-2 receptor (Homo sapiens).
Resp: 220

Req: Specify the recorded IC50 for O=C(NCCN1CCC(O)(Cc2ccccc2)CC1)Nc1ccnc2ccoc12 , system: Urotensin-2 receptor (Homo sapiens).
Resp: 450

Req: Specify the recorded IC50 for Cc1cc(NC(=O)NCCN2CCC(O)(Cc3ccccc3)CC2)c2sccc2n1 , system: Urotensin-2 receptor (Homo sapiens).
Resp: 26

Req: Specify the recorded IC50 for O=C(NCCN1CCC(O)(Cc2cccc(Br)c2)CC1)Nc1ccnc2ccsc12 , system: Urotensin-2 receptor (Homo sapiens).
Resp: 42

Req: Specify the recorded IC50 for Cc1cc2nccc(NC(=O)NCCN3CCC(O)(Cc4ccccc4)CC3)c2s1 , system: Urotensin-2 receptor (Homo sapiens).
Resp: 78

Req: Specify the recorded IC50 for Cn1cnc2c(NC(=O)NCCN3CCC(O)(Cc4ccccc4)CC3)ccnc21 , system: Urotensin-2 receptor (Homo sapiens).
Resp: 2140

Req: Specify the recorded IC50 for Cc1cccc(CC2(O)CCN(CCNC(=O)Nc3ccnc4ccsc34)CC2)c1 , system: Urotensin-2 receptor (Homo sapiens).
Resp: 140
